Target: FGFR1 kinase (Homo sapiens (Human))
Sequence (P11362 22-822): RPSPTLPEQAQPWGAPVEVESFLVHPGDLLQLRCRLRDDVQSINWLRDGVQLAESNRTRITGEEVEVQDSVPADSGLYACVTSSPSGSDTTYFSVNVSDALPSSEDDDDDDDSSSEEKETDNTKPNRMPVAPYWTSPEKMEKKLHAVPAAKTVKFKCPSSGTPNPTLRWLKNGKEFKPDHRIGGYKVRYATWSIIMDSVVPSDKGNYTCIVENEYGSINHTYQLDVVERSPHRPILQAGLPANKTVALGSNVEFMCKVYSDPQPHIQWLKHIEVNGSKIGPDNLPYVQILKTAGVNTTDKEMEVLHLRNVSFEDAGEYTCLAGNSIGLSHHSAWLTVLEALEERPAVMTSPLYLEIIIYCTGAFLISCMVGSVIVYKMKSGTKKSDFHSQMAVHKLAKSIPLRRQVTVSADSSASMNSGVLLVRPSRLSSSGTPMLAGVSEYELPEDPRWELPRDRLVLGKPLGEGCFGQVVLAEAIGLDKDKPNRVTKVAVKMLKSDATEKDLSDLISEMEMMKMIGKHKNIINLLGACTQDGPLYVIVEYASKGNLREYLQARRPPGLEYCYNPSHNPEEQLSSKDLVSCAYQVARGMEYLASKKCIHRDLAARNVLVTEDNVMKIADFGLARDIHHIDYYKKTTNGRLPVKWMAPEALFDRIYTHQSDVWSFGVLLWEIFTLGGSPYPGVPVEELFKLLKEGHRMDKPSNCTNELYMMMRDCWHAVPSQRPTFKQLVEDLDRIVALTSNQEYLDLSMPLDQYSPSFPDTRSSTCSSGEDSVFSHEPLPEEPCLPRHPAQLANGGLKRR
Test: FGFR1 TR-FRET kinase assay
Format: biochemical
Conditions: 1000 nM compound
readout_label: inhibition at 1 µM (%)
Supply the numeric figure in %, leaving out any unit text.

Q: Field request: inhibition at 1 µM | item: O=S(=O)(Nc1cc(C2=CC=C(F)CC2F)cc(-n2cnc3cc(N4CCC(O)C4)ccc32)c1)C1CC1 (stereo not shown) [Example 322]
Result: 92

Q: Do the same for Cn1cc(-c2ccc3c(c2)ncn3-c2cc(NS(=O)(=O)C3CC3)cc(-c3ccc(F)cc3F)c2)cn1 [Example 5] please
Result: 95

Q: CC(=O)Nc1cc(-n2cncn2)cc(-n2cnc3cc(-c4cnn(C)c4)ccc32)c1 [Example 155] , same question.
Result: 89

Q: Further, for CN1CCC(C(=O)Nc2cc(-c3ccc(F)cc3F)cc(-n3cnc4cc(-c5cnn(C)c5)cnc43)c2)CC1 [Example 319] ?
Result: 97

Q: Again, but for O=c1ccc(-c2ccc3c(c2)ncn3-c2cc(NS(=O)(=O)C3CC3)cc(-c3ccc(F)cc3F)c2)c[nH]1 [Example 289]
Result: 94

Q: Field entry: CCS(=O)(=O)Nc1cc(-c2ccc(F)cc2)cc(-n2cnc3cc(-n4cccn4)ccc32)c1 [Example 72]
Result: 98

Q: Thanks! And COc1ccc(-c2cc(NC(C)=O)cc(-n3cnc4cc(-c5cnn(C)c5)ccc43)c2)cn1 [Example 158] ?
Result: 95

Cited source for all entries: patent US9447091B2
